- Test system: rat DGAT2 mRNA
- procedure.summary: Dose-dependent inhibition of DGAT2 in A10 cells, 6.25-200 nM (Example 22, Table 82)
- Type: cell-based
- test.settings: 6.25 nM
Strand notation (5' to 3'): a small letter for the sugar, then the base; units joined by * are phosphorothioate-linked, units joined directly phosphodiester-linked; [ ] holds rarer units or linkages, { } end groups; capitals alone tell only the bases. e = 2'-O-(2-methoxyethyl) (MOE); [5mC] = 5-methylcytosine; d = 2'-deoxy (DNA)
metric: percent inhibition of DGAT2

> print(dat)
                                  substance  measured.number
1  372618 (antisense eG*eT*dG*dG*dT*dA*d[5mC]*dA*dG*dG*dT*d[5mC]*eG*eA) [compound 372618]                0
2  372568 (antisense eG*eA*d[5mC]*dA*d[5mC]*dT*dG*d[5mC]*dA*dG*dG*d[5mC]*e[5mC]*eA) [compound 372568]                0
3  372602 (antisense e[5mC]*e[5mC]*dA*dG*dG*d[5mC]*dA*dT*dG*dG*dA*dG*e[5mC]*eT) [compound 372602]                0
4  372586 (antisense eG*eT*dT*d[5mC]*d[5mC]*dT*dG*dG*dT*dG*dG*dT*e[5mC]*eA) [compound 372586]               19
5  372562 (antisense eG*eT*d[5mC]*dT*dT*dG*dG*dA*dG*dG*dG*d[5mC]*e[5mC]*eG) [compound 372562]                0

###

- Test system: mouse SGLT2 mRNA
- procedure.summary: Mouse SGLT2 mRNA levels in kidney, additional 1-10-1 and 2-8-2 MOE gapmers, Balb/c mice (Example 15, Table 68)
- Format: in vivo
- test.settings: 0.02 umol/kg i.p. twice per week for three weeks
Strand notation (5' to 3'): a small letter for the sugar, then the base; units joined by * are phosphorothioate-linked, units joined directly phosphodiester-linked; [ ] holds rarer units or linkages, { } end groups; capitals alone tell only the bases. e = 2'-O-(2-methoxyethyl) (MOE); [5mC] = 5-methylcytosine; d = 2'-deoxy (DNA)
% change in SGLT2 expression relative to saline values for the substances below.
metric: % change in SGLT2 expression relative to saline (%)

> print(dat)
                                  substance       test.target  measured.number
1  ISIS 388625: SGLT2; TGTTCCAGCCCA 2-8-2 MOE Gapmer (antisense eT*eG*dT*dT*d[5mC]*d[5mC]*dA*dG*d[5mC]*d[5mC]*e[5mC]*eA)  mouse SGLT2 mRNA              −65
2  ISIS 388627 (antisense eG*e[5mC]*dA*d[5mC]*dA*d[5mC]*dA*dG*d[5mC]*dT*eG*e[5mC])  mouse SGLT2 mRNA              −38
3  ISIS 379702: targeted to SGLT2 (antisense eG*d[5mC]*dA*d[5mC]*dA*d[5mC]*dA*dG*d[5mC]*dT*dG*e[5mC])  mouse SGLT2 mRNA              −40
4  ISIS 379699: SGLT2; GGCATGAGCTTC 1-10-1 MOE (antisense eG*dG*d[5mC]*dA*dT*dG*dA*dG*d[5mC]*dT*dT*e[5mC])  mouse SGLT2 mRNA              −30
5  ISIS 388626: SGLT2; GGCATGAGCTTC 2-8-2 MOE (antisense eG*eG*d[5mC]*dA*dT*dG*dA*dG*d[5mC]*dT*eT*e[5mC])  mouse SGLT2 mRNA              −45
6  ISIS 379692: SGLT2; 1-10-1 MOE gapmer (antisense eT*dG*dT*dT*d[5mC]*d[5mC]*dA*dG*d[5mC]*d[5mC]*d[5mC]*eA)  mouse SGLT2 mRNA              −55

###

- Tested on: SGLT2 mRNA
- procedure.summary: SGLT2 mRNA levels in kidney of Balb/c mice, twenty 1-10-1 MOE gapmers at 350 nmol/kg, PPS 534 and PPS 553 (Example 18, Table 74)
- Format: in vivo, mouse
- test.settings: 350 nmol/kg i.p. twice per week for two weeks, primer probe set 553
Strand notation (5' to 3'): a small letter for the sugar, then the base; units joined by * are phosphorothioate-linked, units joined directly phosphodiester-linked; [ ] holds rarer units or linkages, { } end groups; capitals alone tell only the bases. e = 2'-O-(2-methoxyethyl) (MOE); [5mC] = 5-methylcytosine; d = 2'-deoxy (DNA)
metric: SGLT2 mRNA in kidney, % change relative to saline (%)

> print(dat)
                                  substance  measured.number
1  379698 (antisense eG*d[5mC]*dA*dG*d[5mC]*d[5mC]*d[5mC]*dA*d[5mC]*d[5mC]*dT*e[5mC]) [compound 379698]            −27.0
2  379690 (antisense eA*d[5mC]*dA*dG*dG*dT*dA*dG*dA*dG*dG*e[5mC]) [compound 379690]            −22.5
3  379687 (antisense eG*dA*dT*dG*dT*dT*dG*d[5mC]*dT*dG*dG*e[5mC]) [compound 379687]            −52.1
4  379686 (antisense eA*d[5mC]*d[5mC]*dA*d[5mC]*dA*dA*dG*d[5mC]*d[5mC]*dA*eA) [compound 379686]            −75.1
5  379691 (antisense eA*dG*dA*dT*d[5mC]*dT*dT*dG*dG*dT*dG*eA) [compound 379691]            −48.6
6  379700 (antisense e[5mC]*d[5mC]*dA*dG*d[5mC]*dA*dT*dG*dA*dG*dT*e[5mC]) [compound 379700]            −16.4
7  379685 (antisense eT*dG*dA*d[5mC]*d[5mC]*dA*dG*d[5mC]*dA*dG*dG*eA) [compound 379685]            −20.5

###

- Tested on: PTP1B mRNA
- procedure.summary: Dose response for human PTP1B in HuVEC cells, Primer Probe Set 3000 (Example 25, Table 87)
- Type: cell-based
- test.settings: PPS 3000, 10.0 nM
Strand notation (5' to 3'): a small letter for the sugar, then the base; units joined by * are phosphorothioate-linked, units joined directly phosphodiester-linked; [ ] holds rarer units or linkages, { } end groups; capitals alone tell only the bases. e = 2'-O-(2-methoxyethyl) (MOE); [5mC] = 5-methylcytosine; d = 2'-deoxy (DNA)
metric: % Inhibition of PTP1B mRNA (%)

> print(dat)
                                  substance  u  measured.number
1  399315 (antisense eG*eG*d[5mC]*dA*dA*d[5mC]*dT*dT*d[5mC]*dA*dA*d[5mC]*e[5mC]*eT) [compound 399315]  %               71
2  398120 (antisense eG*eT*dT*d[5mC]*dA*dA*dG*d[5mC]*dG*dG*d[5mC]*d[5mC]*eT*eA) [compound 398120]  %               79
3  399102 (antisense eG*eA*dA*dG*dT*d[5mC]*dA*d[5mC]*dT*dG*dG*d[5mC]*eT*eT) [compound 399102]  %               60

###

- Tested on: rat DGAT2 mRNA
- procedure.summary: Dose-dependent inhibition of DGAT2 in A10 cells, 0.62-150 nM (Example 22, Table 83)
- Format: cell-based
- test.settings: 150 nM
Strand notation (5' to 3'): a small letter for the sugar, then the base; units joined by * are phosphorothioate-linked, units joined directly phosphodiester-linked; [ ] holds rarer units or linkages, { } end groups; capitals alone tell only the bases. e = 2'-O-(2-methoxyethyl) (MOE); [5mC] = 5-methylcytosine; d = 2'-deoxy (DNA)
metric: percent inhibition of rat DGAT2

> print(dat)
                                  substance                           metric  measured.number
1  372508 (antisense eA*eG*eT*dT*d[5mC]*d[5mC]*dT*dG*dG*dT*dG*dG*dT*e[5mC]*eA*eG) [compound 372508]  percent inhibition of rat DGAT2               71
2  372586 (antisense eG*eT*dT*d[5mC]*d[5mC]*dT*dG*dG*dT*dG*dG*dT*e[5mC]*eA) [compound 372586]  percent inhibition of rat DGAT2               55
3  372516 (antisense eT*eA*e[5mC]*dA*dG*dA*dA*dG*dG*d[5mC]*dA*d[5mC]*d[5mC]*e[5mC]*eA*eG) [compound 372516]  percent inhibition of rat DGAT2               81
